// data source = patent US5461036A

- System: human colon cancer (COL-1)
- Type: in vivo, mouse
- Condition: COL-1 s.c. in nude mice, at MTD; TGIR=(1-Tx/Cx)×100; maximum during about 3 weeks
Readout type: TGIR (tumor growth inhibition rate, maximum)
Just the number, please, no unit after it.

The compound CCCCCC/C=C\CCCCCCCC(=O)NCC(=O)N[C@@H]1[C@@H](O)[C@@H](O)[C@@H](Nc2ncnc3[nH]cnc23)O[C@H]1C(O)CO (stereo partly shown) [SPK148] , when measured on human colon cancer (COL-1), yielded TGIR (tumor growth inhibition rate, maximum) of 94

TGIR (tumor growth inhibition rate, maximum) value, target or system human colon cancer (COL-1), for CCCCCCCCCCC(F)C(=O)NCC(=O)NC1C(O)C(O)C(Nc2ncnc3[nH]cnc23)OC1C(O)CO (stereo not shown) [SPK159] : 96

TGIR (tumor growth inhibition rate, maximum) value, target or system human colon cancer (COL-1), for O=C(CCCCCCCCCCCCCBr)NCC(=O)N[C@@H]1[C@@H](O)[C@@H](O)[C@@H](Nc2ncnc3[nH]cnc23)O[C@H]1C(O)CO (stereo partly shown) [SPK273] : 98

Form field TGIR (tumor growth inhibition rate, maximum) for item CCCCCCCCCCCCC(=O)NCC(=O)N[C@@H]1[C@@H](O)[C@@H](O)[C@@H](Nc2ncnc3[nH]cnc23)O[C@H]1C(O)CO (stereo partly shown) [SPM9] on human colon cancer (COL-1): 99
